meta.source: patent US20240408169A1

Give pIC50 for every item shown.
Molecular target: CyclinB1/CDK1 (Homo sapiens)
Construct: purchased Eurofins, discovery 14-450
Assay: Fluorescence Polarization (FP) competitive binding assay, Cyclin B1/Cdk1;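 note: fluorescence polarization read after equilibration at room temperature, with IC50 taken from serially diluted dose-response curves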
Conditions: 10 nM Cyclin B1/Cdk1, 2 nM FAM probe; average of 2-3 independent experiments; read-out: Cyclin B FP IC50
*1 amine or outer side, *2 acyl side, *3 side chain or, on linkers, in order; H or OH if unused. Where a SMILES comes first, the peptide text is derived from it. Bridges are numbered along the chain shown (N, C = ends). [ ]: non-standard residue; d: D form. The star is where a group is joined. NMePhe(5-Cl,2-O(2-Pym)) = CN[C@@H](Cc1cc(Cl)ccc1Oc1ncccn1)C(=O)O; NMehhhLys(Me) = CN([C@@H](CCCCCCCN(C)[*:3])C(=O)[*:2])[*:1]; Cyclobutanecarbonyl(1-CF3) = O=C(C1(C(F)(F)F)CCC1)*; Pro(trans-4-F) = O=C(O)[C@@H]1C[C@@H](F)CN1; Gly(cPr) = N[C@H](C(=O)O)C1CC1
API: returns pIC50 as number; meaning -log10 of concentration in mol/L.

Query: Query pIC50 on CyclinB1/CDK1 (Homo sapiens) for CC(C)C[C@@H]1NC(=O)[C@@H](N(C)C(=O)[C@@H](NC(=O)[C@@H]2C[C@@H](F)CN2C(=O)C2(C(F)(F)F)CCC2)C2CC2)CC=CCCCCN(C)C(=O)[C@H](Cc2cc(Cl)ccc2-c2cnn(C)c2)N(C)C1=O [Example 34]
Result: 7.70

Query: Please do the same for CC(C)C[C@@H]1NC(=O)[C@@H](N(C)C(=O)[C@@H](NC(=O)[C@@H]2C[C@@H](F)CN2C(=O)C2(C(F)(F)F)CCC2)C2CC2)CCCCCCCN(C)C(=O)[C@H](Cc2cc(Cl)ccc2Oc2ncccn2)N(C)C1=O [Example 159] ({Cyclobutanecarbonyl(1-CF3)}-[Pro(trans-4-F)][Gly(cPr)][NMehhhLys(Me)]L[NMePhe(5-Cl,2-O(2-Pym))]; lactam 3-C) as well.
Result: 7.70

* * *

Record form. Attribute: log10(IC50). Fill in for each entry.
Target: CyclinA2/CDK2 (Homo sapiens, UniProt P20248)
Construct: purchased CRELUX Protein Services
Test: Fluorescence Polarization (FP) competitive binding assay, Cyclin A2/Cdk2;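 note: plates equilibrated two hours at room temperature before polarization reading, IC50 fitted from eight-concentration compound titration curves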
*1 amine or outer side, *2 acyl side, *3 side chain or, on linkers, in order; H or OH if unused. Where a SMILES comes first, the peptide text is derived from it. Bridges are numbered along the chain shown (N, C = ends). [ ]: non-standard residue; d: D form. The star is where a group is joined. X61 = Cc1nc2c(F)cc(-c3ccc(Cl)cc3C[C@@H](C(=O)[*:2])N(C)[*:1])cc2n1C(C)C; X82 = CN([C@@H](Cc1cc(Cl)ccc1-c1cnn(S(C)(=O)=O)c1)C(=O)[*:2])[*:1]; X30 = CN([C@@H](Cc1cc(Cl)ccc1-c1ccc2c(c1)ncn2C)C(=O)[*:2])[*:1]; X99 = CC(=O)N1CCC(Oc2ccc(Cl)cc2C[C@@H](C(=O)[*:2])N(C)[*:1])CC1; X113 = Cc1cc(-c2ccc(Cl)cc2C[C@@H](C(=O)[*:2])N(C)[*:1])n(C)n1; X83 = CN([C@@H](Cc1cc(Cl)ccc1-c1cnn2c1COCC2)C(=O)[*:2])[*:1]; X89 = CN([C@@H](Cc1cc(Cl)ccc1-c1cnn(CC#N)c1)C(=O)[*:2])[*:1]; NMe3Pal(2-OiBu,5-Cl) = CN[C@@H](Cc1cc(Cl)cnc1OCC(C)C)C(=O)O; NMehhhLys(Me) = CN([C@@H](CCCCCCCN(C)[*:3])C(=O)[*:2])[*:1]; Spiro(3.3)heptane2CO(2-CF3) = O=C(C1(C(F)(F)F)CC2(CCC2)C1)*; X215 = Cc1noc(C)c1-c1ccc(Cl)cc1C[C@@H](C(=O)[*:2])N(C)[*:1]; X22 = CN([C@@H](Cc1cc(Cl)ccc1-c1cnn(C)c1)C(=O)[*:2])[*:1]; Cyclobutanecarbonyl(1-CF3) = O=C(C1(C(F)(F)F)CCC1)*; cBuCO(3,3-F2-1-CF3) = O=C(C1(C(F)(F)F)CC(F)(F)C1)*; X25 = CCOc1ncc(Cl)cc1C[C@@H](C(=O)[*:2])N(C)[*:1]; Pro(trans-4-F) = O=C(O)[C@@H]1C[C@@H](F)CN1; Gly(cPr) = N[C@H](C(=O)O)C1CC1
Scale: decimal log of IC50, IC50 in nM.

Query: Hi! What's the reported log10(IC50) for CC(=O)N1CCC(Oc2ccc(Cl)cc2C[C@H]2C(=O)N(C)CCCCCCC[C@H](N(C)C(=O)[C@@H](NC(=O)[C@@H]3C[C@@H](F)CN3C(=O)C3(C(F)(F)F)CC(F)(F)C3)C3CC3)C(=O)N[C@@H](CC(C)C)C(=O)N2C)CC1 [Example 243] ({cBuCO(3,3-F2-1-CF3)}-[Pro(trans-4-F)][Gly(cPr)][NMehhhLys(Me)]L[X99]; lactam 3-C) on CyclinA2/CDK2 (Homo sapiens, UniProt P20248)?
Result: 1.70

Query: Again, but for CCOc1ncc(Cl)cc1C[C@H]1C(=O)N(C)CCCCCCC[C@H](N(C)C(=O)[C@@H](NC(=O)[C@@H]2C[C@@H](F)CN2C(=O)C2(C(F)(F)F)CCC2)C2CC2)C(=O)N[C@@H](CC(C)C)C(=O)N1C [Example 227] ({Cyclobutanecarbonyl(1-CF3)}-[Pro(trans-4-F)][Gly(cPr)][NMehhhLys(Me)]L[X25]; lactam 3-C)
Result: 1.48

Query: Then this compound: CC(C)C[C@@H]1NC(=O)[C@@H](N(C)C(=O)[C@@H](NC(=O)[C@@H]2C[C@@H](F)CN2C(=O)C2(C(F)(F)F)CC(F)(F)C2)C2CC2)CCCCCCCN(C)C(=O)[C@H](Cc2cc(Cl)ccc2-c2cnn(S(C)(=O)=O)c2)N(C)C1=O [Example 238] ({cBuCO(3,3-F2-1-CF3)}-[Pro(trans-4-F)][Gly(cPr)][NMehhhLys(Me)]L[X82]; lactam 3-C)
Result: 1.48

Query: What do you get for CC(C)COc1ncc(Cl)cc1C[C@H]1C(=O)N(C)CCCCCCC[C@H](N(C)C(=O)[C@@H](NC(=O)[C@@H]2C[C@@H](F)CN2C(=O)C2(C(F)(F)F)CCC2)C2CC2)C(=O)N[C@@H](CC(C)C)C(=O)N1C [Example 230] ({Cyclobutanecarbonyl(1-CF3)}-[Pro(trans-4-F)][Gly(cPr)][NMehhhLys(Me)]L[NMe3Pal(2-OiBu,5-Cl)]; lactam 3-C) ?
Result: 1.48

Query: Continue with Cc1cc(-c2ccc(Cl)cc2C[C@H]2C(=O)N(C)CCCCCCC[C@H](N(C)C(=O)[C@@H](NC(=O)[C@@H]3C[C@@H](F)CN3C(=O)C3(C(F)(F)F)CC(F)(F)C3)C3CC3)C(=O)N[C@@H](CC(C)C)C(=O)N2C)n(C)n1 [Example 235] ({cBuCO(3,3-F2-1-CF3)}-[Pro(trans-4-F)][Gly(cPr)][NMehhhLys(Me)]L[X113]; lactam 3-C)
Result: 2.15

Query: Query Cc1noc(C)c1-c1ccc(Cl)cc1C[C@H]1C(=O)N(C)CCCCCCC[C@H](N(C)C(=O)[C@@H](NC(=O)[C@@H]2C[C@@H](F)CN2C(=O)C2(C(F)(F)F)CC(F)(F)C2)C2CC2)C(=O)N[C@@H](CC(C)C)C(=O)N1C [Example 210] ({cBuCO(3,3-F2-1-CF3)}-[Pro(trans-4-F)][Gly(cPr)][NMehhhLys(Me)]L[X215]; lactam 3-C) next
Result: 2.62

Query: Same again, this time with Cc1nc2c(F)cc(-c3ccc(Cl)cc3C[C@H]3C(=O)N(C)CCCCCCC[C@H](N(C)C(=O)[C@@H](NC(=O)[C@@H]4C[C@@H](F)CN4C(=O)C4(C(F)(F)F)CC(F)(F)C4)C4CC4)C(=O)N[C@@H](CC(C)C)C(=O)N3C)cc2n1C(C)C [Example 231] ({cBuCO(3,3-F2-1-CF3)}-[Pro(trans-4-F)][Gly(cPr)][NMehhhLys(Me)]L[X61]; lactam 3-C)
Result: 1.78

Query: Try the compound CC(C)C[C@@H]1NC(=O)[C@@H](N(C)C(=O)[C@@H](NC(=O)[C@@H]2C[C@@H](F)CN2C(=O)C2(C(F)(F)F)CC(F)(F)C2)C2CC2)CCCCCCCN(C)C(=O)[C@H](Cc2cc(Cl)ccc2-c2cnn3c2COCC3)N(C)C1=O [Example 233] ({cBuCO(3,3-F2-1-CF3)}-[Pro(trans-4-F)][Gly(cPr)][NMehhhLys(Me)]L[X83]; lactam 3-C)
Result: 1.70

Query: Ok, now CC(C)C[C@@H]1NC(=O)[C@@H](N(C)C(=O)[C@@H](NC(=O)[C@@H]2C[C@@H](F)CN2C(=O)C2(C(F)(F)F)CC(F)(F)C2)C2CC2)CCCCCCCN(C)C(=O)[C@H](Cc2cc(Cl)ccc2-c2ccc3c(c2)ncn3C)N(C)C1=O [Example 251] ({cBuCO(3,3-F2-1-CF3)}-[Pro(trans-4-F)][Gly(cPr)][NMehhhLys(Me)]L[X30]; lactam 3-C)
Result: 1.60

Query: Another compound to check: CC(C)C[C@@H]1NC(=O)[C@@H](N(C)C(=O)[C@@H](NC(=O)[C@@H]2C[C@@H](F)CN2C(=O)C2(C(F)(F)F)CC(F)(F)C2)C2CC2)CCCCCCCN(C)C(=O)[C@H](Cc2cc(Cl)ccc2-c2cnn(CC#N)c2)N(C)C1=O [Example 216] ({cBuCO(3,3-F2-1-CF3)}-[Pro(trans-4-F)][Gly(cPr)][NMehhhLys(Me)]L[X89]; lactam 3-C)
Result: 1.48

Query: Another compound to look at: CC(C)C[C@@H]1NC(=O)[C@@H](N(C)C(=O)[C@@H](NC(=O)[C@@H]2C[C@@H](F)CN2C(=O)C2(C(F)(F)F)CC3(CCC3)C2)C2CC2)CCCCCCCN(C)C(=O)[C@H](Cc2cc(Cl)ccc2-c2cnn(C)c2)N(C)C1=O [Example 203] ({Spiro(3.3)heptane2CO(2-CF3)}-[Pro(trans-4-F)][Gly(cPr)][NMehhhLys(Me)]L[X22]; lactam 3-C)
Result: 1.60
